tested on: NCI-H1417 complex spheroids, growth % test/control; experiment: Anticancer human tumor NCI-H1417 cell line growth inhibition [Asc]; details: second compound 1 µM; first compound 0.00316 µM; active = viability on the fitted dose curve at most 10% of control; inactive = the rest;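 also: spheroids exposed to compounds for 7 days; 100% = DMSO vehicle control wells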
Classes used: active, inactive

molecule	group-label
Cn1ncnc1[C@H]1c2n[nH]c(=O)c3cc(F)cc(c23)N[C@@H]1c1ccc(F)cc1 + Cc1c(S(C)(=O)=O)c(-c2cc(F)cc(N3CCN(c4ccc(NS(=O)(=O)c5ccc(NC(CCN6CCC(C(=O)OCCCP(=O)(O)O)CC6)CSc6ccccc6)c(S(=O)(=O)C(F)(F)F)c5)cc4)CC3)c2)c(-c2ccc(Cl)cc2)n1C(C)C	active
O=C(c1ccc(F)c(F)c1Nc1ccc(I)cc1F)N1CC(O)([C@@H]2CCCCN2)C1 + Cc1c(S(C)(=O)=O)c(-c2cc(F)cc(N3CCN(c4ccc(NS(=O)(=O)c5ccc(NC(CCN6CCC(C(=O)OCCCP(=O)(O)O)CC6)CSc6ccccc6)c(S(=O)(=O)C(F)(F)F)c5)cc4)CC3)c2)c(-c2ccc(Cl)cc2)n1C(C)C	inactive
CCN1CCN(Cc2ccc(Nc3ncc(F)c(-c4cc(F)c5nc(C)n(C(C)C)c5c4)n3)nc2)CC1 + CNC(C)C(=O)NC1CN(S(=O)(=O)c2cccc(S(=O)(=O)N3CCC4CCC(C(=O)NC(c5ccccc5)c5ccccc5)N4C(=O)C(NC(=O)C(C)NC)C3)c2)CCC2CCC(C(=O)NC(c3ccccc3)c3ccccc3)N2C1=O	inactive
O=C(c1ccc(F)c(F)c1Nc1ccc(I)cc1F)N1CC(O)([C@@H]2CCCCN2)C1 + CNC(C)C(=O)NC1CN(S(=O)(=O)c2cccc(S(=O)(=O)N3CCC4CCC(C(=O)NC(c5ccccc5)c5ccccc5)N4C(=O)C(NC(=O)C(C)NC)C3)c2)CCC2CCC(C(=O)NC(c3ccccc3)c3ccccc3)N2C1=O	inactive

====

Measured viability, T/C by item
tested on: NCI-H1417 complex spheroids, growth % test/control; experiment: Anticancer human tumor NCI-H1417 cell line growth inhibition [Asc]; settings: second compound 0.316 µM; first compound 0.0316 µM; stronger effect = lower value;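 also: spheroids exposed to compounds for 7 days; 100% = DMSO vehicle control wells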

compound	viability, T/C [%]
O=C(c1cc(Cc2n[nH]c(=O)c3ccccc23)ccc1F)N1CCN(C(=O)C2CC2)CC1 + CNC(C)C(=O)NC1CN(S(=O)(=O)c2cccc(S(=O)(=O)N3CCC4CCC(C(=O)NC(c5ccccc5)c5ccccc5)N4C(=O)C(NC(=O)C(C)NC)C3)c2)CCC2CCC(C(=O)NC(c3ccccc3)c3ccccc3)N2C1=O	99.9
CCN1CCN(Cc2ccc(Nc3ncc(F)c(-c4cc(F)c5nc(C)n(C(C)C)c5c4)n3)nc2)CC1 + Cc1c(S(C)(=O)=O)c(-c2cc(F)cc(N3CCN(c4ccc(NS(=O)(=O)c5ccc(NC(CCN6CCC(C(=O)OCCCP(=O)(O)O)CC6)CSc6ccccc6)c(S(=O)(=O)C(F)(F)F)c5)cc4)CC3)c2)c(-c2ccc(Cl)cc2)n1C(C)C	44.7
CNC(C)C(=O)NC1CN(S(=O)(=O)c2cccc(S(=O)(=O)N3CCC4CCC(C(=O)NC(c5ccccc5)c5ccccc5)N4C(=O)C(NC(=O)C(C)NC)C3)c2)CCC2CCC(C(=O)NC(c3ccccc3)c3ccccc3)N2C1=O (stereo not drawn) + Cc1c(S(C)(=O)=O)c(-c2cc(F)cc(N3CCN(c4ccc(NS(=O)(=O)c5ccc(NC(CCN6CCC(C(=O)OCCCP(=O)(O)O)CC6)CSc6ccccc6)c(S(=O)(=O)C(F)(F)F)c5)cc4)CC3)c2)c(-c2ccc(Cl)cc2)n1C(C)C	47.6
